Task for the reader: assign each of the following compounds its reported CC-v2 (curve classes).
studySystem: recombinant human AChE (Homo sapiens)
Sequence (P22303 32-614): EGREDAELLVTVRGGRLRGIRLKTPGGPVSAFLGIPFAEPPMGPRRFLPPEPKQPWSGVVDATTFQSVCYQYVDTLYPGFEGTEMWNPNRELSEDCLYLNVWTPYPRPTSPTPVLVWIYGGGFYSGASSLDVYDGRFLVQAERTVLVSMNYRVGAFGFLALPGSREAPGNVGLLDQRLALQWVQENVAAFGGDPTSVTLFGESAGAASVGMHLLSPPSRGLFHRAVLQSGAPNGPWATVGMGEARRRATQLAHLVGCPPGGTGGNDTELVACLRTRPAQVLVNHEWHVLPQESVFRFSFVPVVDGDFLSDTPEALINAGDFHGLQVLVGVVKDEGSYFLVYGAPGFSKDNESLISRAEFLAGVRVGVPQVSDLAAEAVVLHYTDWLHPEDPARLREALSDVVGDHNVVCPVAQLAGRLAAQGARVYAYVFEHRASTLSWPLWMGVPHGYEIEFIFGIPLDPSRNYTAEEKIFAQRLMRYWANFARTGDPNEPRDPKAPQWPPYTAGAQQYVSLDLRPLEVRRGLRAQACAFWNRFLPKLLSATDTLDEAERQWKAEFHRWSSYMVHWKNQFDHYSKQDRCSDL
testMethodNotes: biochemical
Counter-ions that a name gives are not always drawn.
Numbers only.

Here's what some known entries look like.
Enter reported CC-v2 (curve classes) observed with recombinant human AChE (Homo sapiens) for C=CCN1CC[C@]23CCCC[C@H]2[C@H]1Cc1ccc(O)cc13 [Levallorphan]
4

Same again, this time with CCOP(=S)(Oc1cnc(C(C)(C)C)nc1)OC(C)C (stereo not shown) [Tebupirimfos]
-2.1

Check O=c1[nH]c2ccc([S+]([O-])CCN3CCC(Cc4ccc(F)cc4)CC3)cc2o1 (stereo not shown) [Besonprodil, reference compound] too.
-1.1

Consider the following items and state reported CC-v2 (curve classes) for each.
1. CCOP(=S)(OCC)SCn1nnc2ccccc2c1=O [Azinphos-ethyl]
2. CC(=O)Oc1cc(C(C)C)c(OCCN(C)C)cc1C [Moxisylyte hydrochloride, reference compound]
3. CCOP(=S)(OCC)OP(=S)(OCC)OCC [Sulfotepp]
4. CCOP(=O)(OCC)Oc1ccc([N+](=O)[O-])cc1 [Paraoxon]

[-2.1, -2.2, -2.1, -1.1]
